assay: qHTS assay for MDR1-selective chemotherapeutics: Primary screen using the drug-selected MDR subline cells KB-V1; conditions: KB-V1 MDR cells viability, CellTiter-Glo, 72 h; series mostly up to 46.1 µM; note: nearly all actives have a fitted effect of over 60% in size; note: potency is the fitted concentration of half-maximal effect
About 13,000 (3.2%) of roughly 400,000 compounds were called active. Roughly 18% stayed inconclusive and do not appear here. This excerpt belongs to a sample that is enriched for actives.
assay endpoint: Potency

molecule: COc1ccccc1-c1nnc2n1N=C(c1ccc(OC(F)F)c(OCC3CC3)c1)CS2
assay endpoint: Potency
measured result: inactive
--
molecule: Cc1ccc(C)c(S(=O)(=O)N2CCN(c3ncnc4sccc34)CC2)c1
assay endpoint: Potency
measured result: 7.31 µM (active)
--
molecule: Cc1ccccc1OCCOc1ccc([N+](=O)[O-])cc1/C=N/n1cnnc1
assay endpoint: Potency
measured result: 8.2 µM (active)
--
molecule: COc1ccc(/C=C/c2ccccn2)cc1OC
assay endpoint: Potency
measured result: inactive
--
molecule: CCOC(=O)c1ccc(NC(=O)Cn2cnc3cc(C)c(C)cc32)cc1
assay endpoint: Potency
measured result: inactive

Record summary for `Cc1ccc(S(=O)(=O)N2CCN(c3ncnc4ccccc34)CC2)cc1` : reported Potency = inactive

Memo: `CSc1ncnc2c1ncn2CCCNCc1ccco1` , reported Potency: inactive

The recorded Potency for `Cc1nnc2n1N=C(c1ccccc1)CS2` is inactive

Lab note: Cc1ccc(Cn2cc(CN3CC(N4CCN(C)CC4)CS3(=O)=O)nn2)cc1 (stereo unspecified) gave Potency of inactive

The recorded Potency for entry CS(=O)c1ccc(/C=C2\C=Cc3ccccc32)cc1 (stereo unspecified) equals inactive

According to the records, this molecule `COc1ccc(/C=C/c2ccnc3ccccc23)cc1OC` displays Potency of inactive
